These measurements were taken from the supplement of paper PMC10724198.

system: Saccharomyces cerevisiae; assay: protein stability index of tFT-peptide fusion (C-terminal peptide) (PSI (0-1 scale)); higher = more stable (slower turnover); conditions: genetic background: wild type; temperature: 30 C;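 also: PSI is a weighted mean of sequencing reads over stability bins, variants kept only with over 10 reads, mCherry proximal and sfGFP distal, peptide attached via GGGS linker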
MEASUREMENT_NAME: protein stability index
API note: the answer field is a bare number with no unit suffix.

RESIDUE_STRING	ASSAY_VALUE
IITAARGDTLSR	0.706
RNLCHILRHERT	0.708
PNKRLKERGDPS	0.695
DDFSHVEVFERV	0.7
ISTSPRCCPRLL	0.714

Moving on to another sequence below.
Consider the sequence `PPPTAPPTTTTR` and give its measured protein stability index.
0.696
